The origin of these recorded values is patent US12643899B2.

- Test system: SARS-CoV-2 South Africa (501Y.V2)
- ASSAY_NOTES: microbe, parasite or virus in culture
- Assay type: cell-based
- CONDITION_INFO: Severe acute respiratory syndrome coronavirus 2, Calu-3
MEASUREMENT_KIND: IC50 (µM)
Give bare numbers, in µM.

q: Report IC50 for COc1c2n(c3ccccc13)[C@]1(O)C(=O)N(C)C(=O)[C@]1(O)c1c-2[nH]c2ccc(Cl)cc12 please.
a: 0.0123
